molecular target: Bile acid receptor (Homo sapiens); test: Agonist activity at human GST-fused FXR LBD assessed as cofactor peptide interaction with receptor ligand binding domain by FRET assay
Sequence (Q96RI1 whole entry, the tested form may be a part): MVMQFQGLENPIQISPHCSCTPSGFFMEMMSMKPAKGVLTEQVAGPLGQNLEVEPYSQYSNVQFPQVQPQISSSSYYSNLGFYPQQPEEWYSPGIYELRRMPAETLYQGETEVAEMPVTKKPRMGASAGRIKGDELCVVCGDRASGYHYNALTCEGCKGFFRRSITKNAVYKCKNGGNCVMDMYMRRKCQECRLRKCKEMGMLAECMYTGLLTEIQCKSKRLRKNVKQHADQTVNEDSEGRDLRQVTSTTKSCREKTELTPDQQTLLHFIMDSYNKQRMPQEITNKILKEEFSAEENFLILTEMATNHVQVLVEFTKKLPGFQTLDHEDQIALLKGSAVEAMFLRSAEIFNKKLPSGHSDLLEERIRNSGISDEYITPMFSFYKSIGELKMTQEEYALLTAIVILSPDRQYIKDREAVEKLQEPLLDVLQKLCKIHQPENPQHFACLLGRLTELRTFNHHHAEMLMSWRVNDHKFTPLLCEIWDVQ
Hi! Just check whether EC50 is below 80 nM. Below gives yes, equal or above gives no.

| molecule | group |
| --- | --- |
| CN(Cc1ccc(C(=O)O)cc1)c1ccc(OCc2c(-c3c(Cl)cccc3Cl)noc2C2CC2)nc1C(F)(F)F | yes |
| CC(C)c1onc(-c2c(Cl)cccc2Cl)c1COc1ccc(N(C)Cc2ccc(C(=O)NS(C)(=O)=O)cc2)c(C(F)(F)F)n1 | yes |
| O=C(O)c1ccccc1OCc1ccc(OCc2c(-c3c(Cl)cccc3Cl)noc2C2CC2)nc1C(F)(F)F | no |

Query :: Decide: EC50 of "CC(C)c1onc(-c2c(Cl)cccc2Cl)c1COc1ccc(NCc2ccc(C(=O)O)cc2)c(C(F)(F)F)n1" strictly below 80 nM?
Result :: no

Query :: Decide: EC50 of CC(Nc1ccc(C(=O)O)cc1)c1ccc(OCc2c(-c3c(Cl)cccc3Cl)noc2C2CC2)nc1C(F)(F)F (stereo unspecified) strictly below 80 nM?
Result :: no
